Tested on: Noggin (protein binding on small-molecule microarray)
Assay: Noggin binders on small-molecule microarray, primary screen, biochemical, 635/667 nm fluorescence (AID 1095);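 further: score merges 667 nm feature fluorescence with signal to noise over triplicate slides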
Conditions: 635 nm fluorescence, higher = more signal
Catalogue of compounds with associated composite z-score

Some solved entries appear below for comparison.
INSERT INTO measurements (compound, target_entity, recorded_value) VALUES
  ('COCCOC(=O)N1C(=O)[C@@]2(c3cc(C#CCC(C(=O)OC)C(=O)OC)ccc31)[C@H](C(=O)N1CCCCCCC1)[C@H]1C(=O)O[C@H](c3ccccc3)[C@H](c3ccccc3)N1[C@@H]2c1ccccc1OCCO', 'Noggin (protein binding on small-molecule microarray)', 1.82),
  ('C=CCC(OC(C)=O)[C@@H]1[C@@H](N(Cc2ccc(-c3ccccc3)cc2)C(=O)c2ccc(C)cc2)c2cc(OCCCO)ccc2N1C(=O)c1ccc2ccccc2c1 (some centres not stated)', 'Noggin (protein binding on small-molecule microarray)', 0.166),
  ('C=CC[C@]1(C(=O)NCc2ccccc2)COC(c2ccc(OCCCO)cc2)=N1', 'Noggin (protein binding on small-molecule microarray)', -1),
  ('CN(C)C(=O)[C@@]1(CCS(=O)(=O)c2ccccc2)N=C(c2ccc(OCCCO)cc2)O[C@H]1c1ccccc1N=[N+]=[N-]', 'Noggin (protein binding on small-molecule microarray)', 0.987),
  ('NC(=O)NCC#Cc1ccc2c(c1)[C@]1(C(=O)N2)[C@H](C(=O)N2CCCCCCC2)[C@H]2C(=O)O[C@H](c3ccccc3)[C@H](c3ccccc3)N2[C@@H]1c1ccc(O)cc1', 'Noggin (protein binding on small-molecule microarray)', 1.85),
  ('O=C1C2C=CC(C(O)c3cccs3)N(Nc3ccccc3)C2C(=O)N1c1ccccc1 (configuration not stated)', 'Noggin (protein binding on small-molecule microarray)', -0.448);

Query: State, in one line, measured composite z-score of COCCOC(=O)N1C(=O)[C@@]2(c3cc(C#CCCO)ccc31)[C@H](c1ccccc1OCCO)N1[C@H](c3ccccc3)[C@H](c3ccccc3)OC(=O)[C@H]1[C@@H]2C(=O)N1CCc2cc(OC)c(OC)cc2C1
Reply: 1.26

Every entry's value here was drawn from PubChem BioAssay.
